Target: T1, Human IL-33 (Axxora/Adipogen AG-40B-0038) (human, UniProt O95760 112-270, limits assumed)
T1 sequence (looked up): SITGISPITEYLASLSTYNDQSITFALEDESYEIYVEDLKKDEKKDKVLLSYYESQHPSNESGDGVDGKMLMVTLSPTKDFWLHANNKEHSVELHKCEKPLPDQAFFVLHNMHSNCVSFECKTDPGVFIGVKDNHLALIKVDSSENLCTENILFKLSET
Experiment: cell-based or functional assay
reportedMetric: IC50, Huvec IL-6 production
State the value with its unit after it.

Lab note: each binder below needs its IC50, Huvec IL-6 production filled in.
1. IL330101 IgG (antibody, V domains shown, IgG1 or IgG1-TM; also called mAb IL330101; IL3300101) VH: EVQLLESGGGLVQPGGSLRLSCAASGFTFSSYAMSWVRQAPGKGLEWVSAISGSGGSTYYADSVKGRFTISRDNSKNTLYLQMNSLRAEDTAVYYCVRVVAGYFDSWGRGTLVTVSS VL: SYVLTQPPSVSVSPGQTARITCSGDALPKQYAHWYQQKPGQAPALVIYKDTERPSGIPERFSGSSSGTTVTLTISGVQAEDEADYYCQSADSSGASRVFGGGTKVTVL
2. IL330396_fgl IgG1 (antibody, V domains shown) VH: EVQLLESGGGLVQPGGSLRLSCAASGFTFSSYAMSWVRQAPGKGLEWVSASTPWQGSTYYADSVKGRFTISRDNSKNTLYLQMNSLRAEDTAVYYCVRWYWGWIDSWGRGTLVTVSS VL: SYELMQPPSVSVSPGQTARITCSGDALPKQYAHWYQQKPGQAPVLVIYKDTERPSGIPERFSGSSSGTTVTLTISGVQAEDEADYYCMSSDDTGASRVFGGGTKLTVL
3. IL330398_fgl IgG1 (antibody, V domains shown) VH: EVQLLESGGGLVQPGGSLRLSCAASGFTFSSYAMSWVRQAPGKGLEWVSASTPWQGSTYYADSVKGRFTISRDNSKNTLYLQMNSLRAEDTAVYYCVRWYWGWIDSWGRGTLVTVSS VL: SYELMQPPSVSVSPGQTARITCSGDALPKQYAHWYQQKPGQAPVLVIYKDTERPSGIPERFSGSSSGTTVTLTISGVQAEDEADYYCLSSDASGASRVFGGGTKLTVL

Reply:
["193 nM", "2.8 nM", "1.5 nM"]
